Tested on: MAO P3
Assay text: Initial oxidation screening: bioconversion of amine substrates by cell-free extract, GC-MS
Assay type: biochemical, Pseudogymnoascus sp. P3
Cond: 10 mM substrate, 10 mM potassium phosphate buffer pH 7.2, cell-free intracellular extract of P3 strain, 4 h at 30 °C; relative to compound 9 = 100%
Quantity kind: Rate of Oxidation (%)
Output spec: scalar in %, unitless text.

Please tell me: Rate of Oxidation of c1ccncc1 [Substrate 8, pyridine] , system MAO P3?
0

Please tell me: Rate of Oxidation of NC1CCCC1 [Substrate 2, cyclopentylamine] , system MAO P3?
31

Please tell me: Rate of Oxidation of NCCN1CCCC1 [Substrate 13, 1-(2-aminoethyl)pyrrolidine] , system MAO P3?
0

---
Please tell me: Rate of Oxidation of NCCCCNCCCN [Substrate 16, spermidine] , system MAO P3?
0

Please tell me: Rate of Oxidation of CN1CCCC1 [Substrate 4, 1-methylpyrrolidine] , system MAO P3?
0

Please tell me: Rate of Oxidation of O=C1NC2C=CC1C2 (stereo not shown) [Substrate 7, 2-azabicyclo[2.2.1]hept-5-en-3-one] , system MAO P3?
0

Please tell me: Rate of Oxidation of c1ccc2c(c1)CCN2 [Substrate 12, indoline] , system MAO P3?
9

Please tell me: Rate of Oxidation of CCC(C)N (stereo not shown) [Substrate 1, sec-butylamine] , system MAO P3?
29

Please tell me: Rate of Oxidation of NC(c1ccccc1)c1ccccc1 [Substrate 14, benzylhydrylamine] , system MAO P3?
0

Please tell me: Rate of Oxidation of C1CC2CNCC2C1 (stereo not shown) [Substrate 10, 3-azabicyclo[3.3.0]octane] , system MAO P3?
67

Please tell me: Rate of Oxidation of NCCCCN [Substrate 15, putrescine] , system MAO P3?
0

Please tell me: Rate of Oxidation of C1CCCNCC1 [Substrate 6, hexamethyleneimine] , system MAO P3?
30

Please tell me: Rate of Oxidation of C1CC[C@H]2CNC[C@H]2C1 [Substrate 11, cis-8-azabicyclo[4.3.0]nonane] , system MAO P3?
0

Please tell me: Rate of Oxidation of C1CCNC1 [Substrate 3, pyrrolidine] , system MAO P3?
36

Please tell me: Rate of Oxidation of CC(N)c1ccccc1 (stereo not drawn) [Substrate 5, α-methylbenzylamine] , system MAO P3?
41

Please tell me: Rate of Oxidation of CC1(C)C2CNCC21 (stereo not shown) [Substrate 9, 6,6-dimethyl-3-azabicyclo[3.1.0]hexane] , system MAO P3?
100
